# assayed system: Opioid receptors; mu & delta (Homo sapiens) (UniProt P41143+P35372)
# Sequence (P35372 whole entry, looked up, one chain of several): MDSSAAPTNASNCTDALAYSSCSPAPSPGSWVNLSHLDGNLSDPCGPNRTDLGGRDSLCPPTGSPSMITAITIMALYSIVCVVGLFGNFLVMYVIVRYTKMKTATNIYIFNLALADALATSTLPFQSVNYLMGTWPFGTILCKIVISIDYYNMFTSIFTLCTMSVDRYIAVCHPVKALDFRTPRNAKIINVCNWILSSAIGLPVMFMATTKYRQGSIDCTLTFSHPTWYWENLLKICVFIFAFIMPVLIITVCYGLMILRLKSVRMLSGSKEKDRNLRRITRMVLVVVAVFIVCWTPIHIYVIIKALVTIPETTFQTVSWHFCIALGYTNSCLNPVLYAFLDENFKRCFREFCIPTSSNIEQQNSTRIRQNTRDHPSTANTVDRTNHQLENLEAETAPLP
# experiment summary: Relative affinity for delta and mu opioid receptors
# Type: protein assay
recorded metric: Ratio
// print number alone

Respond only with Ratio recorded for Cc1cc(O)cc(C)c1C[C@H](N)[C@@H](O)C/C=C/[C@H](O)[C@@H](Cc1ccccc1)C(=O)N[C@H](CO)Cc1ccccc1
340

Respond only with Ratio recorded for Cc1cc(O)cc(C)c1C[C@H](N)[C@@H](O)C/C=C/[C@H](O)[C@@H](Cc1ccccc1)C(=O)O[C@@H](Cc1ccccc1)C(N)=O
46

Respond only with Ratio recorded for Cc1cc(O)cc(C)c1C[C@H](N)[C@H](O)C/C=C/[C@H](O)[C@@H](Cc1ccccc1)C(=O)N[C@@H](Cc1ccccc1)C(N)=O
38

Respond only with Ratio recorded for Cc1cc(O)cc(C)c1C[C@H](N)[C@H](O)C/C=C/[C@H](O)[C@@H](Cc1ccccc1)C(=O)NCCc1ccccc1
510

Respond only with Ratio recorded for Cc1cc(O)cc(C)c1C[C@H](N)[C@H](O)C/C=C/[C@@H](O)[C@@H](Cc1ccccc1)C(=O)NCCc1ccccc1
91

Respond only with Ratio recorded for Cc1cc(O)cc(C)c1C[C@H](N)[C@@H](O)C/C=C/[C@H](O)[C@@H](Cc1ccccc1)C(=O)O[C@H](CO)Cc1ccccc1
39

Respond only with Ratio recorded for Cc1cc(O)cc(C)c1C[C@H](N)[C@@H](O)C/C=C/[C@@H](O)[C@H](Cc1ccccc1)C(=O)NCCc1ccccc1
190

Respond only with Ratio recorded for Cc1cc(O)cc(C)c1C[C@H](N)[C@@H](O)C/C=C/[C@@H](O)[C@@H](Cc1ccccc1)C(=O)N[C@@H](Cc1ccccc1)C(N)=O
86

Respond only with Ratio recorded for Cc1cc(O)cc(C)c1C[C@H](N)[C@@H](O)C/C=C/[C@H](O)[C@@H](Cc1ccccc1)C(=O)N[C@@H](Cc1ccccc1)C(N)=O
230

Respond only with Ratio recorded for Cc1cc(O)cc(C)c1C[C@H](N)[C@@H](O)C/C=C/[C@@H](O)[C@H](Cc1ccccc1)C(=O)N[C@@H](Cc1ccccc1)C(N)=O
190

Respond only with Ratio recorded for Cc1cc(O)cc(C)c1C[C@H](N)[C@@H](O)C/C=C/[C@H](O)[C@@H](Cc1ccccc1)C(=O)NCCc1ccccc1
340

Respond only with Ratio recorded for NC(=O)[C@H](Cc1ccccc1)NC(=O)[C@H](Cc1ccccc1)NC(=O)[C@H]1CCCN1C(=O)[C@@H](N)Cc1ccccc1
36000

Respond only with Ratio recorded for Cc1cc(O)cc(C)c1C[C@H](N)[C@H](O)C/C=C/[C@@H](O)[C@@H](Cc1ccccc1)C(=O)N[C@@H](Cc1ccccc1)C(N)=O
53

Respond only with Ratio recorded for Cc1cc(O)cc(C)c1C[C@H](N)[C@@H](O)C/C=C/[C@@H](O)[C@@H](Cc1ccccc1)C(=O)NCCc1ccccc1
70

---

# assayed system: Delta-type opioid receptor (Homo sapiens)
# Sequence (P41143 whole entry): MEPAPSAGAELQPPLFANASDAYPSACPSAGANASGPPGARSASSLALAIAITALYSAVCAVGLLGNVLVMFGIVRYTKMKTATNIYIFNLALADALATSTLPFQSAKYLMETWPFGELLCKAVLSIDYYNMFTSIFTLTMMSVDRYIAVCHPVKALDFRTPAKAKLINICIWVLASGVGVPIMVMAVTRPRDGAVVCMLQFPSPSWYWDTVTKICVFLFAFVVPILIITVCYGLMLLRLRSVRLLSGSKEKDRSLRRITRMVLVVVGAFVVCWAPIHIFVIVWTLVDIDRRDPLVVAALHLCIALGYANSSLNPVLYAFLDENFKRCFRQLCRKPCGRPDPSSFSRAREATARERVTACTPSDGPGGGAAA
# experiment summary: Displacement of [3H]diprenorphine from human Opioid receptor delta 1 epressing HEK293 cells
# Format: cell-based
Could you please report measured Ki for the items listed next?

Respond only with Ki recorded for Cc1cc(O)cc(C)c1C[C@H](N)[C@@H](O)C/C=C/[C@H](O)[C@@H](Cc1ccccc1)C(=O)O[C@H](CO)Cc1ccccc1
17 nM

Respond only with Ki recorded for Cc1cc(O)cc(C)c1C[C@H](N)[C@H](O)C/C=C/[C@H](O)[C@@H](Cc1ccccc1)C(=O)NCCc1ccccc1
123 nM

Respond only with Ki recorded for Cc1cc(O)cc(C)c1C[C@H](N)[C@@H](O)C/C=C/[C@@H](O)[C@H](Cc1ccccc1)C(=O)NCCc1ccccc1
119 nM

Respond only with Ki recorded for Cc1cc(O)cc(C)c1C[C@H](N)[C@@H](O)C/C=C/[C@H](O)[C@@H](Cc1ccccc1)C(=O)OCCc1ccccc1
56 nM

Respond only with Ki recorded for Cc1cc(O)cc(C)c1C[C@H](N)[C@H](O)C/C=C/[C@@H](O)[C@@H](Cc1ccccc1)C(=O)N[C@@H](Cc1ccccc1)C(N)=O
85 nM

Respond only with Ki recorded for Cc1cc(O)cc(C)c1C[C@H](N)[C@@H](O)C/C=C/[C@H](O)[C@@H](Cc1ccccc1)C(=O)N[C@H](CO)Cc1ccccc1
54 nM

Respond only with Ki recorded for Cc1cc(O)cc(C)c1C[C@H](N)[C@@H](O)C/C=C/[C@H](O)[C@@H](Cc1ccccc1)C(=O)O[C@@H](Cc1ccccc1)C(N)=O
21 nM

Respond only with Ki recorded for Cc1cc(O)cc(C)c1C[C@H](N)[C@@H](O)C/C=C/[C@@H](O)[C@H](Cc1ccccc1)C(=O)N[C@@H](Cc1ccccc1)C(N)=O
230 nM

Respond only with Ki recorded for Cc1cc(O)cc(C)c1C[C@H](N)[C@H](O)C/C=C/[C@H](O)[C@@H](Cc1ccccc1)C(=O)N[C@@H](Cc1ccccc1)C(N)=O
46 nM

Respond only with Ki recorded for Cc1cc(O)cc(C)c1C[C@H](N)[C@H](O)C/C=C/[C@@H](O)[C@@H](Cc1ccccc1)C(=O)NCCc1ccccc1
66 nM

Respond only with Ki recorded for Cc1cc(O)cc(C)c1C[C@H](N)[C@@H](O)C/C=C/[C@H](O)[C@@H](Cc1ccccc1)C(=O)N[C@@H](Cc1ccccc1)C(N)=O
40 nM

Respond only with Ki recorded for Cc1cc(O)cc(C)c1C[C@H](N)[C@@H](O)C/C=C/[C@@H](O)[C@@H](Cc1ccccc1)C(=O)N[C@@H](Cc1ccccc1)C(N)=O
36 nM

Respond only with Ki recorded for Cc1cc(O)cc(C)c1C[C@H](N)[C@@H](O)C/C=C/[C@H](O)[C@@H](Cc1ccccc1)C(=O)NCCc1ccccc1
99 nM

Respond only with Ki recorded for Cc1cc(O)cc(C)c1C[C@H](N)[C@@H](O)C/C=C/[C@@H](O)[C@@H](Cc1ccccc1)C(=O)NCCc1ccccc1
26 nM
